- TEST_TARGET: human progesterone receptor B (Homo sapiens)
- Sequence (P06401 whole entry): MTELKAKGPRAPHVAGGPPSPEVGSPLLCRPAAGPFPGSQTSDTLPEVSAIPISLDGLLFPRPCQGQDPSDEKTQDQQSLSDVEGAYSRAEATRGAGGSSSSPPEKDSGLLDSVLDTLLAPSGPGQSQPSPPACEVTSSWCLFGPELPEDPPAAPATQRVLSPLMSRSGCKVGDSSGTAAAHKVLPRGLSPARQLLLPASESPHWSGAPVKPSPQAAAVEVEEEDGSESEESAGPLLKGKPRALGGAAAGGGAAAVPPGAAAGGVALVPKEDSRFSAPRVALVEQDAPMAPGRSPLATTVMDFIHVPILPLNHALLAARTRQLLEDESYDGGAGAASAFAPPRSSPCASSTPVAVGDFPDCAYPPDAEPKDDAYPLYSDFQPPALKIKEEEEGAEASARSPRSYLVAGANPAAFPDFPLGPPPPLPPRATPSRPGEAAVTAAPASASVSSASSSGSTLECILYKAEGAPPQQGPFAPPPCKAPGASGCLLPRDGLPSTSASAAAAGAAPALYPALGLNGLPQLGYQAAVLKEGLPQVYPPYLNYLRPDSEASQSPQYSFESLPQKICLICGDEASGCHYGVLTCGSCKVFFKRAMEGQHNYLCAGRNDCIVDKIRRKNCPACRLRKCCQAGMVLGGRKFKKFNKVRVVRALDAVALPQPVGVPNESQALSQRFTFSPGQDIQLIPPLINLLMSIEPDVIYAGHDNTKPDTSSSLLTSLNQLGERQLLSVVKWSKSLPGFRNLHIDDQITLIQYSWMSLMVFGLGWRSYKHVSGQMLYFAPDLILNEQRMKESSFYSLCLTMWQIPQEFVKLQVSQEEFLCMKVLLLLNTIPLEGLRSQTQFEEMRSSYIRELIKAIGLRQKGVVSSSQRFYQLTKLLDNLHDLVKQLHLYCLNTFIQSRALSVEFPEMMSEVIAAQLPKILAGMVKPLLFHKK
- EXPERIMENT_DESCRIPTION: Progesterone receptor-antagonistic action in stably transfected SK-N-MC cells, MMTV-LUC reporter (PR-B)
- STUDY_CONDITIONS: antagonistic potency vs 0.1 nmol/l promegestone, 24 hours
- Excerpt: Progesterone Receptor-Antagonistic Action in Stable Transfectants of Human Neuroblastoma Cells (SK-N-MC Cells) with the Human Progesterone A or Progesterone B Receptor and an MN-LUC Reporter Construct […]
MEASUREMENT_KIND: IC50 (nM)

Example compounds with recorded IC50:
- COMPOUND: "Cc1nc(CCc2ccc([C@H]3C[C@@]4(C)[C@@H](CC[C@@]4(O)C(F)(F)C(F)(F)F)[C@@H]4CCC5=CC(=O)CCC5=C43)cc2)cs1"
  MEASUREMENT_KIND: "IC50"
  NUMERIC_RESULT: 0.04
- COMPOUND: "C[C@]12C[C@H](c3cccc(CCO)c3)C3=C4CCC(=O)C=C4CC[C@H]3[C@@H]1CC[C@@]2(O)C(F)(F)C(F)(F)F"
  MEASUREMENT_KIND: "IC50"
  NUMERIC_RESULT: 1
- COMPOUND: "CCOC(=O)c1ccc(NC(=O)OCc2ccc([C@H]3C[C@@]4(C)[C@@H](CC[C@@]4(O)C(F)(F)C(F)(F)F)[C@@H]4CCC5=CC(=O)CCC5=C43)cc2)cc1"
  MEASUREMENT_KIND: "IC50"
  NUMERIC_RESULT: 0.1
- COMPOUND: "C[C@]12C[C@H](c3ccc(CNC(=O)NCc4ccccc4)cc3)C3=C4CCC(=O)C=C4CC[C@H]3[C@@H]1CC[C@@]2(O)C(F)(F)C(F)(F)F"
  MEASUREMENT_KIND: "IC50"
  NUMERIC_RESULT: 0.8
- COMPOUND: "CC(CO)(CO)c1ccc([C@H]2C[C@@]3(C)[C@@H](CC[C@@]3(O)C(F)(F)C(F)(F)F)[C@@H]3CCC4=CC(=O)CCC4=C32)cc1 [Example 15A]"
  MEASUREMENT_KIND: "IC50"
  NUMERIC_RESULT: 0.1

(1) C[C@]12C[C@H](c3ccc(C(CO)CO)cc3)C3=C4CCC(=O)C=C4CC[C@H]3[C@@H]1CC[C@@]2(O)C(F)(F)C(F)(F)F
(2) CCOC(=O)CCNC(=O)OCc1ccc([C@H]2C[C@@]3(C)[C@@H](CC[C@@]3(O)C(F)(F)C(F)(F)F)[C@@H]3CCC4=CC(=O)CCC4=C32)cc1
(3) Cc1ccc(NC(=O)OCc2ccc([C@H]3C[C@@]4(C)[C@@H](CC[C@@]4(O)C(F)(F)C(F)(F)F)[C@@H]4CCC5=CC(=O)CCC5=C43)cc2)cc1
(4) C[C@]12C[C@H](c3ccc(CNC(=O)NCC(=O)O)cc3)C3=C4CCC(=O)C=C4CC[C@H]3[C@@H]1CC[C@@]2(O)C(F)(F)C(F)(F)F
Req: Task for the reader: rank each entry by its IC50, from the minimum upward. Your task in answering is to list the labels in the requested order.
Resp: 2, 3, 1, 4

(P) C[C@]12C[C@H](c3ccc(CNC(=O)Nc4ccccc4)cc3)C3=C4CCC(=O)C=C4CC[C@H]3[C@@H]1CC[C@@]2(O)C(F)(F)C(F)(F)F
(Q) C[C@]12C[C@H](c3cccc(C4CC4)c3)C3=C4CCC(=O)C=C4CC[C@H]3[C@@H]1CC[C@@]2(O)C(F)(F)C(F)(F)F
Req: Decide: P or Q , by lowest recorded IC50. To answer, give the label that identifies your chosen option.
Resp: P
